System: mast cells
assay-explanation: inhibition of mast cell degranulation (spasmogen release) induced by phospholipase A
Assay type: cell-based, rat
experimental-conditions: Mast cell, rat peritoneal mast cells, 37° C., ten minutes, read-out: IC20 (inhibition of mast cell degranulation by 20%)
Note to self: values exactly at 2000 nM are condition met. So IC20 at or above 2000 nM is condition met, below is condition not met.

Is it the case that CCC1CCc2oc3ccc(-c4nn[nH]n4)cc3c(=O)c2C1 (stereo not drawn) has IC20 reaching or exceeding 2000 nM?
condition not met

Now give it for O=C(O)c1ccc2oc3c(c(=O)c2c1)CCCC3 too.
condition met

More entries:
Exam item: decide whether the reported IC20 for CC1CCc2oc3ccc(-c4nn[nH]n4)cc3c(=O)c2C1 (stereo not drawn) is at least 2000 nM.
condition met

Another compound to look at: O=c1c2c(oc3cc(-c4nn[nH]n4)ccc13)CCCC2
condition not met

Let us now turn to O=C(O)c1ccc2oc3c(c(=O)c2c1)CC(C(=O)O)CC3 (stereo not drawn)
condition met

Next compound up: CCC1CCc2oc3cc(C(=O)O)ccc3c(=O)c2C1 (stereo not drawn)
condition not met

Now this one: CC1CCc2oc3ccc(C(=O)O)cc3c(=O)c2C1 (stereo not drawn)
condition met

What do we get for CS(=O)(=O)c1ccc2oc3c(c(=O)c2c1)CC(C(=O)O)CC3 (stereo not drawn) ?
condition not met

Proceed to CCC1CCc2oc3ccc(C(=O)O)cc3c(=O)c2C1 (stereo not drawn)
condition not met
